Tested on: LOX IMVI melanoma
Test: NCI tumour cell line growth inhibition, 48 h
Below, each entry is listed with its recorded TGI.

Worked examples follow.
O=c1c2c([nH]c3ccccc13)CCCC2: > 100 µM
C=CCN(Cc1ccncc1)C(=O)C(O)(c1ccccc1)c1ccccc1: > 100 µM
COC(=O)[C@@H]1C[C@@]23CCCN4CC[C@@]5(c6cccc(OC)c6N(C=O)[C@]15CC2)[C@@H]43: > 100 µM

I'd like to know its TGI. The compound in question is `COC(=O)[C@]12CC[C@H]3CN(C(=O)OCc4ccccc4)[C@H]([C@H]31)[C@H](c1ccco1)N2`
> 100 µM

---

Test system: RXF 393 renal
Assay: NCI tumour cell line growth inhibition, 48 h
Below, each entry is listed with its recorded TGI.

Worked examples follow.
O=C(Nc1ccccn1)/C(=C\C(=O)c1ccc(Cl)cc1)Nc1ccccc1: > 10 µM
O=C1O[C@@H](c2ccccc2)C[C@H]1CN1CCOCC1: > 100 µM
COC(=O)[C@]12CC[C@H]3CN(C(=O)OCc4ccccc4)[C@H]([C@H]31)[C@H](c1ccco1)N2: > 100 µM

Report TGI for `CCN(CC)CCn1ncc2c3c(=O)c4cccnc4n(CCN(CC)CC)c3ccc21` tested on RXF 393 renal.
> 10 µM

Further, for `COc1cc(N2C(=O)C(=O)C3(CCCCC3)C2=O)cc(OC)c1OC` ?
> 100 µM

---

Tested on: KM12 colon
Assay: NCI tumour cell line growth inhibition, 48 h
*1 amine or outer side, *2 acyl side, *3 side chain or, on linkers, in order; H or OH if unused. Where a SMILES comes first, the peptide text is derived from it. [ ]: non-standard residue; d: D form. ξ: configuration not given here. Ile(3ξ) = CCC(C)[C@H](N)C(=O)O; X33 = C=CCC(O[*:1])C(=O)[*:2]; NMeV = CN[C@H](C(=O)O)C(C)C; NMeA = CN[C@@H](C)C(=O)O; βAla = NCCC(=O)O
test readout: TGI

Worked examples follow.
CCC(O)CC1OC2(CCC1C)CC1OC(=O)/C=C\C(C)(O)C(O)C(C)C(O)C(OC3CC(OC)C(O)C(C)O3)C(O)C(C)(O)CCC/C=C/C3CC(C)COC3(O)CC(O2)C1C (configuration not stated): 16.8 µM
CCCOP1(=O)C=C(O)C(Cl)=C(C)C1 (configuration not stated): > 100 µM
CN(C)c1nc(=Nc2ccc3c(c2)OCO3)ss1: > 100 µM
CC(C)=CCCC(C)[C@H]1CC(O)C2(C)C3=CCC4C(C)(C)[C@@H](O)CC[C@]4(C)C3=CC[C@]12C (some centres not stated): > 100 µM
O=C1C(Cl)C(c2cc(Br)cc(Br)c2O)N1n1cnc2ccccc2c1=O (configuration not stated): 92.5 µM

Report TGI for C=CCc1cc(OC)c2c(c1)C(OC(C)=O)CC(c1ccc(OC)c(OC)c1)O2 (configuration not stated) tested on KM12 colon.
> 100 µM

Further, for C=CCC1OC(=O)CCNC(=O)[C@H](C)N(C)C(=O)[C@H](C(C)C)N(C)C(=O)[C@H](C(C)CC)NC(=O)[C@@H]2CCCN2C1=O (some centres not stated) (cyclo([Ile(3ξ)][NMeV][NMeA][βAla][X33]P)) ?
> 100 µM

Further, for `CC(=O)[CH-]C(=O)c1ccccc1.CC(=O)[CH-]C(=O)c1ccccc1.CCN(CC)CC[O-].CCN(CC)CC[O-].Cl.[Hf+4]` ?
> 100 µM

Further, for `CCOC(=O)NC(Nc1ccc(OC(F)(F)F)cc1)(C(F)(F)F)C(F)(F)F` ?
> 100 µM

Further, for `CCN(CC)CCn1ncc2c3c(=O)c4cccnc4n(CCN(CC)CC)c3ccc21` ?
> 10 µM

Further, for `C/C(=N\NC(=S)Nc1ccccc1)c1nc2ncccc2[nH]1` ?
> 100 µM

Further, for `COc1ccc2c(c1)[C@@H]1c3cc(OC)c(OC)cc3CCN1CCC2` ?
> 100 µM

Further, for `CC1=C(C(=O)OCc2ccncc2)C(C2=C(C)SCCS2)C(C(=O)OCc2ccncc2)=C(C)N1` ?
47.5 µM

Further, for `CC1(C)OC(=O)C(c2cccs2)C(=O)O1` ?
> 100 µM

Further, for O=C1c2ccccc2C(=Nc2ccc3ccccc3c2)C1(C1=C(c2ccccc2)C(=Nc2ccc3ccccc3c2)c2ccccc21)c1ccccc1 (configuration not stated) ?
> 42.6 µM

Further, for `Oc1ccc(Nc2nc3ccccc3c3occc23)cc1` ?
38.6 µM

Further, for CCOC(=O)c1ccc2c(c1)[n+](=O)c(C(=O)C1CCCS1)c(C(F)(F)F)n2[O-] (configuration not stated) ?
0.975 µM

Further, for `COc1ccc2c(c1)C(N)=C(c1ccccc1OC)C2=O` ?
> 100 µM

Further, for Cc1cccc2c1CC(C1OC(=O)c3ccccc31)C2=O (configuration not stated) ?
> 100 µM

Further, for `CCCCc1c2c(nc3c1CCCC3=O)C(=O)CCC2` ?
> 100 µM

Further, for `COc1ccc(C(=C[N+](=O)[O-])c2ccc(OC)cc2)cc1` ?
> 46.5 µM

Further, for `O=c1[nH][nH]c(=O)n1Cc1cccc(Cn2c(=O)[nH][nH]c2=O)c1` ?
> 100 µM

Further, for `C[C@]1(O)CC[C@H]2[C@@H]3CCc4cc(O)ccc4[C@H]3CC[C@@]21C` ?
12.1 µM

Further, for O=C1NN=C2C=C(c3ccc(Cl)cc3)CC(c3cccc(Br)c3)C12 (configuration not stated) ?
> 100 µM

Further, for O=C1NC2c3c(I)sc(I)c3/C(=N\O)C2O1 (configuration not stated) ?
> 100 µM

Further, for `Fc1c(F)c(F)c2c(c1F)CSc1nc3ccccc3n1-2` ?
> 100 µM
